The measured values listed here are drawn from paper PMC12655527.

# assay overview: Pharmacokinetic parameters (Tmax, AUClast, Cmax) of DD217 in phase II trial patients
# Assay type: in vivo, human (patients undergoing knee replacement surgery)
# protocol conditions: human, plasma, oral, 40 mg; CYP3A *1/*1, EM (n = 12); mean ± SD; read-out: Tmax

| structure smiles | Tmax, h |
| --- | --- |
| CC(=N)N(C)c1ccc(C(=O)Nc2ccc(C)cc2C(=O)Nc2ccc(Cl)cn2)cc1.Cl | 11.8 |

* * *

# assay overview: Pharmacokinetic parameters (Tmax, AUClast, Cmax) of DD217 in phase II trial patients
# Format: in vivo, human (patients undergoing knee replacement surgery)
# protocol conditions: human, plasma, oral, 60 mg/day; ABCB1 rs2032582 T/T (n 5); read-out: AUClast (SD)
measured property: AUC(0-t) (ng·h/mL)

| structure smiles | reading unit | reported measurement |
| --- | --- | --- |
| CC(=N)N(C)c1ccc(C(=O)Nc2ccc(C)cc2C(=O)Nc2ccc(Cl)cn2)cc1.Cl | ng·h/mL | 19.4 |
